Biological target: T1, human gastric inhibitory peptide receptor (GIPR) (human, UniProt P48546 22-466)
T1 sequence (looked up): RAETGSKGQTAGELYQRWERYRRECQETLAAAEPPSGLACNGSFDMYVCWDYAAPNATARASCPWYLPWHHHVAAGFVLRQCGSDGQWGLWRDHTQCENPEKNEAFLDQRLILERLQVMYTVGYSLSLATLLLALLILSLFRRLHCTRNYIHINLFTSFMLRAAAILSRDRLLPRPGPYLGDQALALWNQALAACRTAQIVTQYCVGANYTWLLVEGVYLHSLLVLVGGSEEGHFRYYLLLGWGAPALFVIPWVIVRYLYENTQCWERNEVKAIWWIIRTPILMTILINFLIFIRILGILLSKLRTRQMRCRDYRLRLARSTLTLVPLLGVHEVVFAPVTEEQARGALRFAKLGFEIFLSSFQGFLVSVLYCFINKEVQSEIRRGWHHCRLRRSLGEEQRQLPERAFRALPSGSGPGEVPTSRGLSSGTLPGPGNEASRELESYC
Assay: cell-based or functional assay
# note: boundary value 30 pM maps to not satisfied; hGIPR cAMP Rel EC50 below it maps to satisfied

[ask] Record YXEGTFTSDYSIXLDKKAQXEFIEYLIAGGPSSGAPPPS (not fully specified; Aib2, αMeL13, (2-[2-(2-Amino-ethoxy)-ethoxy]-acetyl)-(γ-Glu)-CO-(CH2)18-CO2H on K17, Aib20, C-terminal NH2) [Example 339] : is its hGIPR cAMP Rel EC50 strictly below 30 pM?
[reply] satisfied

[ask] Record XXEGTFTSDYSIXLDEKAQXEFIEYLIAGGPSSGAPPPS (not fully specified; D-Tyr1, Aib2, αMeL13, (2-[2-(2-Amino-ethoxy)-ethoxy]-acetyl)2-(γ-Glu)-CO-(CH2)18-CO2H on K17, Aib20, C-terminal NH2) [Example 342] : is its hGIPR cAMP Rel EC50 strictly below 30 pM?
[reply] not satisfied

[ask] Record YXEGTFTSDYSILLDKKAQAAFIEYLIEGGPSSGAPPPS (Aib2, (2-[2-(2-Amino-ethoxy)-ethoxy]-acetyl)2-(γ-Glu)-CO-(CH2)18-CO2H on K17, C-terminal NH2) [Example 253] : is its hGIPR cAMP Rel EC50 strictly below 30 pM?
[reply] not satisfied

[ask] Record YXEGTFTSDYSIXLDEKAQXEFIEYLIAGGPSSGAPPPS (Aib2, αMeL13, (2-[2-(2-Amino-ethoxy)-ethoxy]-acetyl)2-(γ-Glu)-CO-(CH2)18-CO2H on K17, Aib20, C-terminal NH2) [Example 331] : is its hGIPR cAMP Rel EC50 strictly below 30 pM?
[reply] not satisfied

[ask] Record YXEGTFTSDYSIXLDEKAQXDFIEYLIAGGPSSGAPPPS (Aib2, αMeL13, (2-[2-(2-Amino-ethoxy)-ethoxy]-acetyl)2-(γ-Glu)-CO-(CH2)18-CO2H on K17, Aib20, C-terminal NH2) [Example 344] : is its hGIPR cAMP Rel EC50 strictly below 30 pM?
[reply] not satisfied
